- Tested System: full-length human PLD1 (Homo sapiens (Human))
- Sequence (Q13393 other isoform, or with tags, fused parts or gaps): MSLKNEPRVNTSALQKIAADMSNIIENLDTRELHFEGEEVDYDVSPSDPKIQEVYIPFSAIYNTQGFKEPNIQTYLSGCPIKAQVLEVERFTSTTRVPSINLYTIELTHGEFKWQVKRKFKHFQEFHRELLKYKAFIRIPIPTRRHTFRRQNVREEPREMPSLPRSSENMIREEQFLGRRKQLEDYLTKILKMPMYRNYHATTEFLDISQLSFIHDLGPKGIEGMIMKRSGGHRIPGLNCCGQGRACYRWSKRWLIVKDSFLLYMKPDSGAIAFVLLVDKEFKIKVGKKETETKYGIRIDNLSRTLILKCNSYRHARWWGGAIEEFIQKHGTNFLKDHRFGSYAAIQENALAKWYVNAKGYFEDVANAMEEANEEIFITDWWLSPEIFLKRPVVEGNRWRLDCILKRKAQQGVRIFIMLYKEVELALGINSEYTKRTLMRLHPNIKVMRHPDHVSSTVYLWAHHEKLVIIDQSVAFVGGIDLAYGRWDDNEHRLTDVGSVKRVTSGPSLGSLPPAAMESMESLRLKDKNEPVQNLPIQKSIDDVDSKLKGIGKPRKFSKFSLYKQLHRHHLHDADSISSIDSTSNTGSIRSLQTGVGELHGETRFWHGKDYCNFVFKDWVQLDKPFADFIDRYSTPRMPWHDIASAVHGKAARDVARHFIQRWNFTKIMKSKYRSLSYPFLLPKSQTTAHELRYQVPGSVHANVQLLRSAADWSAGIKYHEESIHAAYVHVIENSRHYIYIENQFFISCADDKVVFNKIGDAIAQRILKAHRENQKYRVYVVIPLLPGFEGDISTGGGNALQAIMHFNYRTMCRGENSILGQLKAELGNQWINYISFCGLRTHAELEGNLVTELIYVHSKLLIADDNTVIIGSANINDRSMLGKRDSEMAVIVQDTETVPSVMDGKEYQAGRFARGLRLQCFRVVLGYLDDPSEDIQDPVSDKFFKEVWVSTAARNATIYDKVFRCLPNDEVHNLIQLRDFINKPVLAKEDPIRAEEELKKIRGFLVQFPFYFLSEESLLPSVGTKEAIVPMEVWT
- Assay: Evaluation of human PLD1 enzyme inhibitory activity (Amplex Red / choline oxidase fluorescence)
- Assay type: biochemical
- Experimental Conditions: full-length human PLD1 enzyme; read-out: PLD1 IC50
Lab note: anything with IC50 below 20 nM is marked True; values at 20 nM or higher are marked False.

1. COc1cc(C)c(C2=NNC(=O)O[C@]23CC[C@@H](C[C@H](C)NC(=O)N2CCn4nncc4C2)CC3)cn1 | False
2. C[C@@H](C[C@H]1CC[C@]2(CC1)OC(=O)NN=C2c1ccc(F)cc1Br)NC(=O)C(=O)NC1CC1 | True
3. CNC(=O)C(=O)N[C@@H](C)C[C@H]1CC[C@]2(CC1)OC(=O)NN=C2c1cc(Cl)ccc1I | True
4. CNC(=O)C(=O)N[C@@H](C)C[C@H]1CC[C@]2(CC1)OC(=O)NN=C2c1ccc(Br)cc1Br | True
5. CNC(=O)C(=O)N[C@@H](C)C[C@H]1CC[C@]2(CC1)OC(=O)NN=C2c1cnc(N2CC(C(F)(F)F)C2)cc1C | False
6. Cc1cc(C(=O)N[C@@H](C)C[C@H]2CC[C@]3(CC2)OC(=O)NN=C3c2cnc(N3CC(F)(F)C3)cc2C)[nH]n1 | True
7. Cc1cc(C(=O)N[C@@H](C)C[C@]2(O)CC[C@@]3(CC2)OC(=O)NN=C3c2ccc(F)cc2Br)[nH]n1 | False
